measured-on: DNA topoisomerase 1 (Homo sapiens) (UniProt P11387)
Sequence (P11387 whole entry): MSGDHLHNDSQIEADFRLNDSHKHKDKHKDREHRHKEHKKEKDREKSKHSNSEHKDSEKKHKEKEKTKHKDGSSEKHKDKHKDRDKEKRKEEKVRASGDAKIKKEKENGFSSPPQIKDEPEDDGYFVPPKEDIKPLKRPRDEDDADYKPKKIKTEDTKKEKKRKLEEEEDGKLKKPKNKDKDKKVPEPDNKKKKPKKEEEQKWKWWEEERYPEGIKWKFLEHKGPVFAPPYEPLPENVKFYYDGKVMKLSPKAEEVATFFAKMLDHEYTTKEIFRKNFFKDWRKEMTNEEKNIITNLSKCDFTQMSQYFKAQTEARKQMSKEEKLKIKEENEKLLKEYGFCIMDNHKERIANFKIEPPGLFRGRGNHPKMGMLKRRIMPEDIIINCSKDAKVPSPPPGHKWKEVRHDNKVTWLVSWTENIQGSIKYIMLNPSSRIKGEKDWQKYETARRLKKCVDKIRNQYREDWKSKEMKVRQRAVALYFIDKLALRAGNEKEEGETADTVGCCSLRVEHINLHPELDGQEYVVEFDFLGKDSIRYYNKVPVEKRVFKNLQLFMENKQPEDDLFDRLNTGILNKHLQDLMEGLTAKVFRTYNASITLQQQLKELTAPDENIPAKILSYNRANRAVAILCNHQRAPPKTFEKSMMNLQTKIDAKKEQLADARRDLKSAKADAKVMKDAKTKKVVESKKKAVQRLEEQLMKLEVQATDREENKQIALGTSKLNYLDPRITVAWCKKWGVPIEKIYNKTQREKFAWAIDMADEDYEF
assay-summary: Inhibition of human DNA topoisomerase 1-mediated relaxation of supercoiled pBR322 DNA at 100 uM after 30 mins by ethidium bromide staining based agarose gel electrophoresis
Active and inactive are the calls of the source. The rule behind the calls is not given here.
endpoint-name: topoisomerase 1 inhibition (active/inactive)

[
  {
    "structure-smiles-string": "CN(C)CCCO/N=C/c1cccc2nc3c(nc12)-c1ccccc1/C3=N\\OCCCN(C)C.Cl",
    "measured-on": "DNA topoisomerase 1 (Homo sapiens) (UniProt P11387)",
    "observed-result": "Active"
  },
  {
    "structure-smiles-string": "CN(C)CCCO/N=C1\\c2ccccc2-c2nc3c(CN4CCOCC4)cccc3nc21.Cl",
    "measured-on": "DNA topoisomerase 1 (Homo sapiens) (UniProt P11387)",
    "observed-result": "Active"
  },
  {
    "structure-smiles-string": "O=C1c2ccccc2-c2nc3c(CN4CCCCC4)cccc3nc21",
    "measured-on": "DNA topoisomerase 1 (Homo sapiens) (UniProt P11387)",
    "observed-result": "Active"
  },
  {
    "structure-smiles-string": "O=C1c2ccccc2-c2nc3c(CN4CCOCC4)cccc3nc21",
    "measured-on": "DNA topoisomerase 1 (Homo sapiens) (UniProt P11387)",
    "observed-result": "inactive"
  },
  {
    "structure-smiles-string": "CN(C)CCCO/N=C1\\c2ccccc2-c2nc3c(C(=O)NCCN4CCOCC4)cccc3nc21.Cl",
    "measured-on": "DNA topoisomerase 1 (Homo sapiens) (UniProt P11387)",
    "observed-result": "Active"
  }
]

Quick one: topoisomerase 1 inhibition (active/inactive) for CN(C)CCCO/N=C1\c2ccccc2-c2nc3c(CN(C)C)cccc3nc21.Cl ?
Active

Quick one: topoisomerase 1 inhibition (active/inactive) for O=C1c2ccccc2-c2nc3c(CN4CCC(N5CCCCC5)CC4)cccc3nc21 ?
inactive

Quick one: topoisomerase 1 inhibition (active/inactive) for O/N=C\c1cccc2nc3c(nc12)-c1ccccc1/C3=N/O ?
inactive

Quick one: topoisomerase 1 inhibition (active/inactive) for O/N=C1\c2ccccc2-c2nc3ccccc3nc21 ?
inactive

Quick one: topoisomerase 1 inhibition (active/inactive) for CN(C)CCCO/N=C1\c2ccccc2-c2nc3c(C(=O)NCCN4CCCC4)cccc3nc21.Cl ?
Active

Quick one: topoisomerase 1 inhibition (active/inactive) for CN(C)CCCNC(=O)c1cccc2nc3c(nc12)-c1ccccc1C3=O ?
Active

* * *

measured-on: DNA topoisomerase 1 (Homo sapiens)
assay-summary: Inhibition of human DNA topoisomerase 1-mediated relaxation of supercoiled pBR322 DNA at 10 uM after 30 mins by ethidium bromide staining based agarose gel electrophoresis
Calls of active or inactive are those of the source. The calls are words filed in the database; no cut-off is given here.
Output constraint: value belongs to 1 for active, 0 for inactive

Would you please look over these solved cases?
[
  {
    "structure-smiles-string": "CN(C)CCNC(=O)c1cccc2nc3c(nc12)-c1ccccc1C3=O",
    "discrete-label": 1
  },
  {
    "structure-smiles-string": "O=C1c2ccccc2-c2nc3c(CN4CCCCC4)cccc3nc21",
    "discrete-label": 0
  },
  {
    "structure-smiles-string": "C(=N\\OCCN1CCCC1)/c1cccc2nc3c(nc12)-c1ccccc1/C3=N\\OCCN1CCCC1.Cl",
    "discrete-label": 1
  },
  {
    "structure-smiles-string": "CN(C)CCCNC(=O)c1cccc2nc3c(nc12)-c1ccccc1C3=O",
    "discrete-label": 0
  },
  {
    "structure-smiles-string": "CN(C)CCCO/N=C1\\c2ccccc2-c2nc3c(CN4CCCCC4)cccc3nc21.Cl",
    "discrete-label": 1
  },
  {
    "structure-smiles-string": "CN(C)CCCO/N=C1\\c2ccccc2-c2nc3c(CN4CCCC4)cccc3nc21.Cl",
    "discrete-label": 1
  },
  {
    "structure-smiles-string": "COc1ccc2c(c1)/C(=N\\OCCN1CCCC1)c1c-2c(O)nc2ccccc12",
    "discrete-label": 1
  },
  {
    "structure-smiles-string": "Cc1cccc2nc3c(nc12)-c1ccccc1/C3=N\\OCCCN(C)C.Cl",
    "discrete-label": 1
  }
]

Hi, do you know how CN(C)Cc1cccc2nc3c(nc12)-c1ccccc1C3=O came out in this test?
0

Hi, do you know how CN(C)CCCO/N=C1\c2ccccc2-c2nc3c(CN4CCC(N5CCCCC5)CC4)cccc3nc21.Cl came out in this test?
1

Hi, do you know how CN(C)CCCO/N=C1\c2ccccc2-c2nc3ccccc3nc21.Cl came out in this test?
1
